Taken from PubChem BioAssay (NCI).

run-description: NCI Yeast Anticancer Drug Screen. Data for the bub3 strain (AID 167)
condition: S. cerevisiae bub3 mutant strain, at 50.0 µM (retest, dose inferred, filed as 5.0), stronger effect = higher value
About 79,000 compounds went through this panel and 15% of them were active in at least one assay; those are over-represented in the sample as a whole.
// label = yes (1) if growth inhibition is not less than 90%, otherwise no (0)

Confirm if growth inhibition reported for the molecule O=C1/C(=N/N=C(c2ccccc2)c2ccccc2)c2ccccc2-c2ccccc21 is 90% or above.
no (0)

Confirm if growth inhibition reported for the molecule CN(C)CCN(C)N=Nc1c(-c2cccs2)n[nH]c1C(F)(F)F is 90% or above.
yes (1)

Confirm if growth inhibition reported for the molecule Oc1cc2c(cc1C(c1ccc(F)cc1)N1CCCCC1)OCO2 (stereo unspecified) is 90% or above.
no (0)

Confirm if growth inhibition reported for the molecule CCSc1nnc(CSc2nc(-c3ccccc3)c(-c3ccccc3)[nH]2)n1-c1ccccc1 is 90% or above.
no (0)

Confirm if growth inhibition reported for the molecule O=c1[nH]ncc(SCc2ccccc2)c1SCc1ccccc1 is 90% or above.
no (0)

Confirm if growth inhibition reported for the molecule CCOC(=O)c1c(N)sc2c1CCCCC2 is 90% or above.
no (0)

Confirm if growth inhibition reported for the molecule S=c1[nH]c2c(-c3ccccc3)cccc2s1 is 90% or above.
no (0)

Confirm if growth inhibition reported for the molecule CC(C)(C)OC(=O)Nc1cccc(Cl)c1 is 90% or above.
no (0)

Confirm if growth inhibition reported for the molecule CCCCCCCCCCCCCCOS(=O)(=O)O is 90% or above.
no (0)

Confirm if growth inhibition reported for the molecule O=[N+]([O-])c1cc(Cl)cc2c1nc(NCCO)c1ccccc12 is 90% or above.
no (0)

Confirm if growth inhibition reported for the molecule NC(=O)N/N=C1/CC2CCCCC2c2ccccc21 (stereo unspecified) is 90% or above.
yes (1)

Confirm if growth inhibition reported for the molecule CNC1C(O)C(NC)C2OC3(O)C(=O)CC(C)OC3OC2C1O (stereo unspecified) is 90% or above.
no (0)

Confirm if growth inhibition reported for the molecule Cc1cccc(C)c1NC(=O)CSC(N)=O is 90% or above.
no (0)

Confirm if growth inhibition reported for the molecule CCCCCCCCCC(=O)CC(=O)c1c(O)cccc1O is 90% or above.
yes (1)

Confirm if growth inhibition reported for the molecule CN(C)Cc1ccc2c(c1)c1c(n2Cc2ccccc2)CCCC1 is 90% or above.
yes (1)

Confirm if growth inhibition reported for the molecule N#Cc1cc([N+](=O)[O-])ccc1NC(=O)/C(=N/N)C(C(=O)c1ccc(Cl)c(Cl)c1)C1OC(=O)c2ccccc21 (stereo unspecified) is 90% or above.
no (0)

Confirm if growth inhibition reported for the molecule CCc1nc(N)nc(N)c1-c1ccc(NCCCCCCCCCCCCN)c([N+](=O)[O-])c1 is 90% or above.
yes (1)

Confirm if growth inhibition reported for the molecule Cc1ccc(S(=O)(=O)N/N=C/Cc2ccccc2)cc1 is 90% or above.
yes (1)

Confirm if growth inhibition reported for the molecule C/C(CC(O)(C(F)(F)F)C(F)(F)F)=N/Nc1ccc([N+](=O)[O-])cc1[N+](=O)[O-] is 90% or above.
yes (1)

Confirm if growth inhibition reported for the molecule COc1ccc(N=NC(C(=O)c2ccccc2)C(=O)c2ccccc2)cc1 is 90% or above.
yes (1)

Confirm if growth inhibition reported for the molecule C=CCOc1ccccc1C(OCC)OCC is 90% or above.
no (0)

Confirm if growth inhibition reported for the molecule CCc1cccc(C)c1N1C(=O)C(=O)C(c2nc3ccccc3o2)/C(=N\NS(=O)(=O)c2ccc(C)cc2)C1=O (stereo unspecified) is 90% or above.
no (0)

Confirm if growth inhibition reported for the molecule O=[n+]1c2c(n([O-])c3ccc4ccccc4c31)-c1cccc3cccc-2c13 is 90% or above.
no (0)

Confirm if growth inhibition reported for the molecule O=C(CNc1cccc([N+](=O)[O-])c1)Nn1c(-c2ccccc2)nc2ccccc2c1=O is 90% or above.
no (0)

Confirm if growth inhibition reported for the molecule CCCCC(CC)COC(=O)c1cc2ccccc2oc1=O (stereo unspecified) is 90% or above.
no (0)

Confirm if growth inhibition reported for the molecule CC(=O)Nc1ccc2c(c1)C(S)c1ccccc1-2 (stereo unspecified) is 90% or above.
no (0)

Confirm if growth inhibition reported for the molecule COc1ccc(/C=C2/C(=O)ON=C2C)cc1OC is 90% or above.
no (0)

Confirm if growth inhibition reported for the molecule CC1(C)C(=O)N(CCCCCCN2C(=O)C(C)(C)c3ccccc32)c2ccccc21 is 90% or above.
no (0)

Confirm if growth inhibition reported for the molecule CCCCCCCCCCCC#CCCCCC(=O)O is 90% or above.
yes (1)

Confirm if growth inhibition reported for the molecule Nc1cc(Cl)c2c(c1)Cc1ccccc1-2 is 90% or above.
yes (1)

Confirm if growth inhibition reported for the molecule Cc1c(N2CCCC2)cc2c(c1NC(=O)c1ccccc1Cl)C(C)(C)CC2(C)C is 90% or above.
no (0)

Confirm if growth inhibition reported for the molecule Cc1ccc(S(=O)(=O)OC(C=O)C(O)C(O)COC(c2ccccc2)(c2ccccc2)c2ccccc2)cc1 (stereo unspecified) is 90% or above.
yes (1)

Confirm if growth inhibition reported for the molecule C=C1C(=O)[C@@]23CC[C@H]4[C@@](C)(CCC[C@@]4(C)C(=O)OC)[C@@H]2CC[C@]1(O)C3 is 90% or above.
yes (1)

Confirm if growth inhibition reported for the molecule CCCCCC(Oc1ccc(Cl)cc1)C(=O)O (stereo unspecified) is 90% or above.
no (0)

Confirm if growth inhibition reported for the molecule CC(=O)OC1CC2Cc3ccccc3C3(O)COC213 (stereo unspecified) is 90% or above.
no (0)

Confirm if growth inhibition reported for the molecule O=C(O)CC(NC(=O)CP(=O)(O)O)C(=O)O.[NH-]C1CCCCC1[NH-].[Pt+2] (stereo unspecified) is 90% or above.
no (0)

Confirm if growth inhibition reported for the molecule C[n+]1cc2c3ccccc3ccc2c2ccccc21 is 90% or above.
no (0)

Confirm if growth inhibition reported for the molecule CN(C)Cc1ccc2[nH]c3c(c2c1)CCCC3 is 90% or above.
no (0)

Confirm if growth inhibition reported for the molecule N#CCc1ccccc1-c1cccc2ccccc12 is 90% or above.
no (0)

Confirm if growth inhibition reported for the molecule CCCCCCCCCCCCCCCCP(=O)([O-])OCC[N+](C)(C)C is 90% or above.
yes (1)

Confirm if growth inhibition reported for the molecule COc1cc(C(c2ccccc2)c2ccccc2)c2ccccc2c1O is 90% or above.
no (0)

Confirm if growth inhibition reported for the molecule NC(=Nc1cc2ccccc2c2ccccc12)Nc1cc2ccccc2c2ccccc12 is 90% or above.
yes (1)

Confirm if growth inhibition reported for the molecule c1ccc(CCNCc2ccco2)nc1 is 90% or above.
no (0)
